- assay: solvent given as SMILES
- appliedConditions: in O
assayReadout: solvation free energy, 298 K

molecule	obsValue
Cc1cccc2ccccc12	-2.32 kcal/mol
Cc1ccncc1C	-5.22 kcal/mol
Cc1cc(Cl)c(Cl)cc1Cl	-1.05 kcal/mol
CC(C)Cl	-0.23 kcal/mol

Next item in the queue.
Query: solvation free energy, 298 K for CC1=CCC2C(C1)C2(C)C (stereo not given) ?
Response: 0.79 kcal/mol

* * *

Each entry below carries its recorded solvation free energy, 298 K.
- assay: solvent given as SMILES
- appliedConditions: in NC=O
Just the number in kcal/mol, nothing appended.

lineNotation	solvation free energy, 298 K / kcal/mol
CC(=O)CCCCC(C)C	-5.09

Continue with the compound presented below.
Query: Please give the measured solvation free energy, 298 K for this compound: "C1CCOC1"
Response: -3.69

* * *

Each entry below lists one item and its recorded solvation free energy, 298 K value.
- assay: solvent given as SMILES
- appliedConditions: in CC1COC(=O)O1
Note: unit kcal/mol is implicit; provide only the numeric part.

Worked cases, answers included:
lineNotation	solvation free energy, 298 K [kcal/mol]
CCCCCCC	-2.54
CCI	-3.71
CCCCCCCCC	-3.44

Query: Reported solvation free energy, 298 K for "CCCCC" : what is it?
Response: -1.59

Query: So what's the measured solvation free energy, 298 K for this one? "CC=C(C)C"
Response: -2.09

Query: Give its solvation free energy, 298 K value. Item: "CCCCCC"
Response: -2.04

Query: Suppose we examine the molecule "CC(C)C(C)C(C)C" ; what solvation free energy, 298 K value has been reported?
Response: -2.86

* * *

Measured solvation free energy, 298 K, listed per entry for reference.
- assay: solvent given as SMILES
- appliedConditions: in CNC=O
Numeric answer only, unit kcal/mol assumed.

# annotated cases, reported solvation free energy, 298 K shown
lineNotation	assayReadout	obsValue
CCCCC	solvation free energy, 298 K	-1.87
CC=C(C)C	solvation free energy, 298 K	-2.17
C=CC(C)C	solvation free energy, 298 K	-1.75
CCCCCCCCC	solvation free energy, 298 K	-3.82
CCC(C)(C)OC	solvation free energy, 298 K	-3.62
CC(C)=O	solvation free energy, 298 K	-3.82
CCCCCCC	solvation free energy, 298 K	-2.85
CC(C)CCC(C)C	solvation free energy, 298 K	-2.97
CCCCCC	solvation free energy, 298 K	-2.36
CCc1ccccc1	solvation free energy, 298 K	-4.82

Query: Quick one: solvation free energy, 298 K for "c1cc2ccc3cccc4ccc(c1)c2c34" ?
Response: -11.8

Query: What does the data say about its solvation free energy, 298 K? Entry: "C[N+](=O)[O-]"
Response: -5.14

* * *

- assay: solvent given as SMILES
- appliedConditions: in CCCCCCCC
assayReadout: solvation free energy, 298 K (kcal/mol)
Write the number in kcal/mol without appending the unit.

compound	measurementUnits	solvation free energy, 298 K
CC(C)CC(C)O (stereo not drawn)	kcal/mol	-4.63
C=CC(C)C	kcal/mol	-2.92
C[N+](=O)[O-]	kcal/mol	-2.62
c1cc2ccc3cccc4ccc(c1)c2c34	kcal/mol	-11.7
CC(C)C(C)C(C)C	kcal/mol	-4.91
Br	kcal/mol	-1.11

Query: Reported solvation free energy, 298 K for "O=[N+]([O-])c1cc[n+]([O-])cc1" : what is it?
Response: -7.13

Query: Could you tell me which solvation free energy, 298 K is on file for "CCOCC" ?
Response: -3.05

Query: Quick one: solvation free energy, 298 K for "CC(C)CCC(C)C" ?
Response: -4.83

Query: Fill blank: measured solvation free energy, 298 K of the compound "O=[N+]([O-])c1cccc2ccccc12" is ____.
Response: -9.38

Query: Reported solvation free energy, 298 K for "Cc1ccc(C)c(O)c1" : what is it?
Response: -6.44

Query: Recorded solvation free energy, 298 K of "Oc1ccccc1F" , please.
Response: -4.52

Query: Need solvation free energy, 298 K, item "FC(F)(F)Cl"
Response: -0.53

Query: Tell me the measured solvation free energy, 298 K of "CCC(=O)OC" , please.
Response: -3.57

Query: Which solvation free energy, 298 K is reported for this compound? "CC(=O)C(C)(C)C"
Response: -4.21

Query: Reported solvation free energy, 298 K, compound "CCOC(C)=O" : ____
Response: -3.4

Query: State the recorded solvation free energy, 298 K for this entry: "CC#N"
Response: -2.17

Query: Dear colleague, I am looking for the recorded solvation free energy, 298 K of the following compound: "Cc1ccc(O)c(C)c1"
Response: -6.46

Query: Any idea what solvation free energy, 298 K was measured for "O=S(=O)(c1ccccc1)c1ccccc1" ?
Response: -11.8
